ASSAY_TARGET: UniProtKB Q8NB16
ASSAY_NAME: KINOMEscan binding assay, MLKL (full length)
CONDITION_DESCRIPTION: Table 36
Reported Kd values are given for each entry in this list.

COMPOUND: Cc1ncsc1-c1ccc(CNC(=O)[C@@H]2C[C@@H](O)CN2C(=O)[C@@H](NC(=O)CCCCCOc2ccc(Nc3[nH]nc(-c4ccc(NS(=O)(=O)C(F)F)c(O[C@@H](C)c5ccc(F)cc5)c4)c3C(N)=O)nc2)C(C)(C)C)cc1
Kd: < 10 nM
--
COMPOUND: CCS(=O)(=O)Nc1ccc(-c2n[nH]c(Nc3ccc(C(=O)NCCCCC(=O)N[C@@H](C(=O)N4C[C@@H](O)C[C@@H]4C(=O)NCc4ccc(-c5scnc5C)cc4)C(C)(C)C)cn3)c2C(N)=O)cc1OC(C)c1ccc(F)cc1 (stereo in doubt)
Kd: < 10 nM
--
COMPOUND: CCS(=O)(=O)Nc1ccc(-c2n[nH]c(Nc3ccnc(OCCCCC(=O)N[C@H](C(=O)N4C[C@@H](O)C[C@H]4C(=O)NCc4ccc(-c5scnc5C)cc4)C(C)(C)C)c3)c2C(N)=O)cc1
Kd: < 10 nM

====

ASSAY_TARGET: MLKL (full length) (Homo sapiens (Human), UniProt Q8NB16)
Sequence (Q8NB16 whole entry): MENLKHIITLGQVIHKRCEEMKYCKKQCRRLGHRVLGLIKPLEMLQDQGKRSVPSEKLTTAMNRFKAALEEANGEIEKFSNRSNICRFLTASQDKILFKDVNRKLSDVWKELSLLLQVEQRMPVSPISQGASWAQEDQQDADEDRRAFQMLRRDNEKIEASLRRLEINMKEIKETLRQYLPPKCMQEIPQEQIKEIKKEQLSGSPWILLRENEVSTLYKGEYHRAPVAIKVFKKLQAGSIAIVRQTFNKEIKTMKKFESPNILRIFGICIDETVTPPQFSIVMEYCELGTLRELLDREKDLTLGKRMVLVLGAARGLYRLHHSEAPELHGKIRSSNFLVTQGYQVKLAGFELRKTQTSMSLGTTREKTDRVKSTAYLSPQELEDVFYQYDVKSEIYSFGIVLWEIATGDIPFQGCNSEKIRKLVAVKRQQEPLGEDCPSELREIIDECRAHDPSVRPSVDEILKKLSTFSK
ASSAY_NAME: KINOMEscan binding assay, MLKL (full length)
CONDITION_DESCRIPTION: Table 36
Protocol: Kinase assays. For most assays, kinase-tagged T7 phage strains were grown in parallel in 24-well blocks in an E. coli host derived from the BL21 strain. E. coli were grown to log-phase and infected with T7 phage from a frozen stock (multiplicity of infection=0.4) and incubated with shaking at 32° C. until lysis (90-150 minutes). The Hill Slope was set to −1.

CHEMICAL_STRUCTURE: CCS(=O)(=O)Nc1ccc(-c2n[nH]c(Nc3ccc(C(=O)OCCCCC(=O)N[C@H](C(=O)N4C[C@H](O)C[C@H]4C(=O)NCc4ccc(-c5scnc5C)cc4)C(C)(C)C)cn3)c2C(N)=O)cc1
Kd: 0.01 to 1 µM
//
CHEMICAL_STRUCTURE: CCS(=O)(=O)Nc1ccc(-c2n[nH]c(Nc3ccc(C(=O)OCCOCC(=O)N[C@H](C(=O)N4C[C@H](O)C[C@H]4C(=O)NCc4ccc(-c5scnc5C)cc4)C(C)(C)C)cn3)c2C(N)=O)cc1O[C@@H](C)c1ccc(F)cc1
Kd: 0.01 to 1 µM
//
CHEMICAL_STRUCTURE: Cc1ncsc1-c1ccc(CNC(=O)[C@@H]2C[C@@H](O)CN2C(=O)[C@@H](NC(=O)CCn2ccc(Nc3[nH]nc(-c4ccc(NS(=O)(=O)C(F)F)c(O[C@@H](C)c5ccc(F)cc5)c4)c3C(N)=O)n2)C(C)(C)C)cc1
Kd: < 0.01 µM
//
CHEMICAL_STRUCTURE: CCS(=O)(=O)Nc1ccc(-c2n[nH]c(Nc3ccc(C(=O)OCCCCC(=O)N[C@H](C(=O)N4C[C@H](O)C[C@H]4C(=O)NCc4ccc(-c5scnc5C)cc4)C(C)(C)C)cn3)c2C(N)=O)cc1OCc1ccc(F)cc1
Kd: 1 to 30 µM
//
CHEMICAL_STRUCTURE: Cc1ncsc1-c1ccc(CNC(=O)[C@@H]2C[C@@H](O)CN2C(=O)[C@@H](NC(=O)CCCCOC(=O)c2ccc(Nc3[nH]nc(-c4ccc(NS(=O)(=O)C(F)F)c(O[C@@H](C)c5ccc(F)cc5)c4)c3C(N)=O)nc2)C(C)(C)C)cc1
Kd: 0.01 to 1 µM
//
CHEMICAL_STRUCTURE: Cc1ncsc1-c1ccc(CNC(=O)[C@@H]2C[C@@H](O)CN2C(=O)[C@@H](NC(=O)CCCCOc2ccc(Nc3[nH]nc(-c4ccc(NS(=O)(=O)CC(F)(F)F)cc4)c3C(N)=O)nc2)C(C)(C)C)cc1
Kd: < 0.01 µM
//
CHEMICAL_STRUCTURE: CCS(=O)(=O)Nc1ccc(-c2n[nH]c(Nc3ccc(C(=O)OCCCCC(=O)N[C@H](C(=O)N4C[C@H](O)C[C@H]4C(=O)NCc4ccc(-c5scnc5C)cc4)C(C)(C)C)cn3)c2C(N)=O)cc1O[C@@H](C)c1ccc(F)cc1
Kd: 0.01 to 1 µM
//
CHEMICAL_STRUCTURE: CCS(=O)(=O)Nc1ccc(-c2n[nH]c(Nc3cnc(OCCCCC(=O)N[C@H](C(=O)N4C[C@H](O)C[C@H]4C(=O)NCc4ccc(-c5scnc5C)cc4)C(C)(C)C)cn3)c2C(N)=O)cc1
Kd: < 0.01 µM
//
CHEMICAL_STRUCTURE: CCS(=O)(=O)Nc1ccc(-c2n[nH]c(Nc3ccc(OCCCCC(=O)N[C@H](C(=O)N4C[C@H](O)C[C@H]4C(=O)NCc4ccc(-c5scnc5C)cc4)C(C)(C)C)cn3)c2C(N)=O)cc1
Kd: < 0.01 µM
//
CHEMICAL_STRUCTURE: CCS(=O)(=O)Nc1ccc(-c2n[nH]c(Nc3ccc(C(=O)OCCCCCCC(=O)N[C@H](C(=O)N4C[C@H](O)C[C@H]4C(=O)NCc4ccc(-c5scnc5C)cc4)C(C)(C)C)cn3)c2C(N)=O)cc1O[C@@H](C)c1ccc(F)cc1
Kd: 0.01 to 1 µM
//
CHEMICAL_STRUCTURE: CCS(=O)(=O)Nc1ccc(-c2n[nH]c(Nc3ccnc(OCCCCC(=O)N[C@H](C(=O)N4C[C@H](O)C[C@H]4C(=O)NCc4ccc(-c5scnc5C)cc4)C(C)(C)C)c3)c2C(N)=O)cc1
Kd: < 0.01 µM
//
CHEMICAL_STRUCTURE: Cc1ncsc1-c1ccc(CNC(=O)[C@@H]2C[C@@H](O)CN2C(=O)[C@@H](NC(=O)COCCOc2cc(Nc3[nH]nc(-c4ccc(NS(=O)(=O)C(F)F)cc4)c3C(N)=O)ccn2)C(C)(C)C)cc1
Kd: < 0.01 µM
//
CHEMICAL_STRUCTURE: Cc1ncsc1-c1ccc(CNC(=O)[C@@H]2C[C@@H](O)CN2C(=O)[C@@H](NC(=O)CCCCOc2cc(Nc3[nH]nc(-c4ccc(NS(=O)(=O)CC(F)(F)F)cc4)c3C(N)=O)ccn2)C(C)(C)C)cc1
Kd: < 0.01 µM
//
CHEMICAL_STRUCTURE: CCS(=O)(=O)Nc1ccc(-c2n[nH]c(Nc3ccc(C(=O)OCC(=O)N[C@H](C(=O)N4C[C@H](O)C[C@H]4C(=O)NCc4ccc(-c5scnc5C)cc4)C(C)(C)C)cn3)c2C(N)=O)cc1O[C@@H](C)c1ccc(F)cc1
Kd: < 0.01 µM
